system name: UniProtKB P50225
Sequence (P50225 whole entry): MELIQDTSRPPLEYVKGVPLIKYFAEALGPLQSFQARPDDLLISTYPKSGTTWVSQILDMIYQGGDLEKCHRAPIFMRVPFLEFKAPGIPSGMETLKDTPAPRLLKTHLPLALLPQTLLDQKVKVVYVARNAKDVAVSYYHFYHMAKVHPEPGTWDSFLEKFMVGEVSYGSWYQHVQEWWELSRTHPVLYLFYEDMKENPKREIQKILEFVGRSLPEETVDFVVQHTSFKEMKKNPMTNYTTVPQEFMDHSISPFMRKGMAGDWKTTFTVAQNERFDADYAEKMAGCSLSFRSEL
readout kind: Kd (µM)
Reply numerically in µM, unit not repeated.

Recorded Kd (compound C[C@]12CC[C@@H]3c4ccc(O)cc4C[C@@H](CCCCCCCCC[S+]([O-])CCCC(F)(F)C(F)(F)F)[C@H]3[C@@H]1CC[C@@H]2O (stereo partly shown) ): 2.3
